- Condition: in methyl acetate, 293.21 K
Endpoint label: solubility (mole fraction)
Numbers only.

For reference, reported solubility (mole fraction) for O=C(O)c1cccc([N+](=O)[O-])c1C(=O)O stands at 0.0365

###

- Condition: in water, 303.19 K
Endpoint label: solubility (mole fraction)
Give bare numbers.

For reference, reported solubility (mole fraction) for O=C(O)c1cccc([N+](=O)[O-])c1C(=O)O stands at 0.00211

###

- Condition: in ethyl acetate, 328.23 K
Endpoint label: solubility (mole fraction)
Give bare numbers.

For reference, reported solubility (mole fraction) for O=C(O)c1cccc([N+](=O)[O-])c1C(=O)O stands at 0.0144

###

- Condition: in ethyl formate, 323.29 K
Endpoint label: solubility (mole fraction)

For reference, reported solubility (mole fraction) for O=C(O)c1cccc([N+](=O)[O-])c1C(=O)O stands at 0.00517

###

- Condition: in ethyl formate, 298.26 K
Endpoint label: solubility (mole fraction)
Answers are plain numbers.

For reference, reported solubility (mole fraction) for O=C(O)c1cccc([N+](=O)[O-])c1C(=O)O stands at 0.00335

###

- Condition: in n-butyl acetate, 343.25 K
Endpoint label: solubility (mole fraction)
Answers are plain numbers.

For reference, reported solubility (mole fraction) for O=C(O)c1cccc([N+](=O)[O-])c1C(=O)O stands at 0.0101

###

- Condition: in n-butyl acetate, 348.24 K
Endpoint label: solubility (mole fraction)
Answers are plain numbers.

For reference, reported solubility (mole fraction) for O=C(O)c1cccc([N+](=O)[O-])c1C(=O)O stands at 0.0108

###

- Condition: in 1,4-dioxane, 348.23 K
Endpoint label: solubility (mole fraction)
Answers are plain numbers.

For reference, reported solubility (mole fraction) for O=C(O)c1cccc([N+](=O)[O-])c1C(=O)O stands at 0.167

###

- Condition: in ethyl formate, 308.19 K
Endpoint label: solubility (mole fraction)
Numbers only.

For reference, reported solubility (mole fraction) for O=C(O)c1cccc([N+](=O)[O-])c1C(=O)O stands at 0.00396

###

- Condition: in ethyl acetate, 313.16 K
Endpoint label: solubility (mole fraction)
One number for each entry.

For reference, reported solubility (mole fraction) for O=C(O)c1cccc([N+](=O)[O-])c1C(=O)O stands at 0.0116

###

- Condition: in 1,4-dioxane, 313.2 K
Endpoint label: solubility (mole fraction)
Answers are plain numbers.

For reference, reported solubility (mole fraction) for O=C(O)c1cccc([N+](=O)[O-])c1C(=O)O stands at 0.124

###

- Condition: in THF, 313.23 K
Endpoint label: solubility (mole fraction)
One number for each entry.

For reference, reported solubility (mole fraction) for O=C(O)c1cccc([N+](=O)[O-])c1C(=O)O stands at 0.209

###

- Condition: in methyl acetate, 303.16 K
Endpoint label: solubility (mole fraction)
One number for each entry.

For reference, reported solubility (mole fraction) for O=C(O)c1cccc([N+](=O)[O-])c1C(=O)O stands at 0.0392

###

- Condition: in ethyl formate, 288.18 K
Endpoint label: solubility (mole fraction)
Give bare numbers.

For reference, reported solubility (mole fraction) for O=C(O)c1cccc([N+](=O)[O-])c1C(=O)O stands at 0.00287

###

- Condition: in THF, 288.16 K
Endpoint label: solubility (mole fraction)
One number for each entry.

For reference, reported solubility (mole fraction) for O=C(O)c1cccc([N+](=O)[O-])c1C(=O)O stands at 0.204
